Target: Phospholipase A2 (Homo sapiens)
Test: Inhibition of human group 1B secreted phospholipase A2 at 10 uM by fluorescence assay
reported.endpoint: inhibition (%)

(A) CC(C)[C@H](NC(=O)C(=O)c1ccc2ccccc2c1)C(=O)O
(B) CC(C)[C@H](NC(=O)C(=O)CCCCc1ccc(-c2ccccc2)cc1)C(=O)O
Query: Hi team, can someone confirm which has the larger inhibition: A or B ? Thanks. Bench note: the answer is the label of the chosen record.
Response: A

(I) CC(C)[C@H](NC(=O)C(=O)CCCCc1ccccc1)C(=O)O
(II) CC(C)[C@H](NC(=O)C(=O)CCCCc1ccc2ccccc2c1)C(=O)O
Query: Consider I and II . Which of these has its inhibition at a higher number? // output: label of the selected item
Response: I
